Sourced from ChEMBL document CHEMBL1777772

# TEST_PROTOCOL: Oral bioavailability in rat
# Assay type: ADME, organism-based
# CONDITION_DETAILS: in vivo
QUANTITY_NAME: bioavailability (%)

In [3]: df
Out[3]:
                           structure_smiles  obs_value
0  COCC[C@H](NC1(C(=O)N[C@@H](Cc2ncc(-c3ccccc3)o2)C(=O)O)CCCC1)C(=O)O        1.7

----------
# TEST_PROTOCOL: Half life in iv dosed rat
# Type: ADME, organism-based
# CONDITION_DETAILS: in vivo
QUANTITY_NAME: half-life (h)

>>> print(df.to_string())
                           structure_smiles  quantity_name  result_unit  obs_value
0  COCC[C@H](NC1(C(=O)N[C@@H](Cc2ncc(-c3ccccc3)o2)C(=O)O)CCCC1)C(=O)O      half-life            h        2.1
